# System: 786-0 renal
# experiment-description: NCI tumour cell line growth inhibition, 48 h
Please provide measured TGI for the entries that follow.

{"molecule": "O=C(Cc1ccc2ccccc2c1)NCc1ccc(C(=O)NCCc2ccccc2)cc1", "TGI": "> 100 µM"}
{"molecule": "CC1(C)N=C(N)N=C(N)N1c1ccc(CNC(=O)Nc2ccc(S(=O)(=O)F)c(Cl)c2)c(Cl)c1", "TGI": "> 100 µM"}

We now examine a further molecule.
Query: # return recorded TGI for entry COC1OC2COC1(OCc1ccccc1)C1OC(C)(C)OC21 (stereo not drawn)
Response: > 100 µM

###

# Tested on: SW-620 colon
# experiment-description: NCI tumour cell line growth inhibition, 48 h
Where a SMILES comes first, the peptide text is derived from it. [ ]: non-standard residue; d: D form. pGlu = O=C1CC[CH](C(=O)O)N1; Thz = O=C(O)[CH]1CSCN1
Please provide measured TGI for the entries that follow.

Solved entries:
{"compound": "Nn1c(CCCCCCCCc2nnc(-c3c(O)ccc4ccccc34)n2N)nnc1-c1c(O)ccc2ccccc12", "recorded-metric": "TGI", "observed-value": "> 100 µM"}
{"compound": "COc1cc(-n2ccnc2-c2ccc3ccccc3c2)cc(OC)c1OC", "recorded-metric": "TGI", "observed-value": "> 63 µM"}
{"compound": "NC(=O)CC1OC(=O)Cc2cc3c(c(O)c21)C(=O)c1c(O)cccc1C3=O (centres undefined)", "recorded-metric": "TGI", "observed-value": "> 100 µM"}
{"compound": "CCSC[C@@H]1C[C@](O)(c2ccc(Cl)cc2)[C@@H](c2ccc(Cl)cc2)O1", "recorded-metric": "TGI", "observed-value": "33.6 µM"}
{"compound": "O=S(=O)(N=C1C(Cl)=C(Cl)C(=NS(=O)(=O)c2ccccc2)C(Cl)=C1Cl)c1ccccc1", "recorded-metric": "TGI", "observed-value": "28 µM"}
{"compound": "CC(C)(C)c1cc(/C=C(\\C#N)C2=NCCO2)cc(C(C)(C)C)c1O", "recorded-metric": "TGI", "observed-value": "18.5 µM"}
{"compound": "C(=N\\c1nc2cc3sc(/N=C/c4ccccc4)nc3cc2s1)/c1ccccc1", "recorded-metric": "TGI", "observed-value": "> 100 µM"}
{"compound": "Cn1c(-c2ccc(C=O)o2)ccc1-c1ccc(C=O)o1", "recorded-metric": "TGI", "observed-value": "> 100 µM"}

Query: # return recorded TGI for entry O=C1CCC(C(=O)N2CSCC2C(=O)O)N1 (centres undefined) ([pGlu]-[Thz]-OH; configuration not given here)
Response: > 100 µM
